target: Estrogen receptor (Homo sapiens) (UniProt P03372); test: qHTS assay to identify small molecule antagonists of the estrogen receptor alpha (ER-alpha) signaling pathway using the BG1 cell line in the presence of 0.1 nM 17-beta-estradiol (AID 1259244); conditions: VM7Luc4E2 (BG1) ERE-luciferase, antagonist mode, 0.1 nM E2, 22 h; series mostly up to 92.4 µM; further: on the % scale 0 is the no-effect control and ±100 the full control effect; nearly all actives have a fitted effect of over 50% in size
Sequence (P03372 whole entry, looked up): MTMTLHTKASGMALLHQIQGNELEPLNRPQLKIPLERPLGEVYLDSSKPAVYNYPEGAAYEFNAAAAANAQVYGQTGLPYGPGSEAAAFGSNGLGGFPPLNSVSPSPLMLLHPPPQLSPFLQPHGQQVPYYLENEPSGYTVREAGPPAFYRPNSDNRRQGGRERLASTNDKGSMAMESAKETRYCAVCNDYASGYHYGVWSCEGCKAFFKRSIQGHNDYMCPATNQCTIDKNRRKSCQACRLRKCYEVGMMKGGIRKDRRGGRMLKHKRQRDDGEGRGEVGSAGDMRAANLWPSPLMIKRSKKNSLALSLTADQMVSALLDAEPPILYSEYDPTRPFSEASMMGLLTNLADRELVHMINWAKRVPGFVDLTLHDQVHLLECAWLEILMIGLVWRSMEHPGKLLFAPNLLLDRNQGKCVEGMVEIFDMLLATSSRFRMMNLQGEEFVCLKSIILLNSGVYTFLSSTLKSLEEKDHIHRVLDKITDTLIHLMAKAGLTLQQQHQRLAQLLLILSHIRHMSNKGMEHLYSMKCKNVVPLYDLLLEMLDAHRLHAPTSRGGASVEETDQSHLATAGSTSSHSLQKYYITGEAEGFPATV
Records with an inconclusive call do not appear. Calls of active or inactive are those of the source. The call rests on the fitted dose curve; in most records, active means well fitted inhibition curve with a large enough effect in the repeat runs; inconclusive means weak or mixed curves; inactive means no such curve, though single readings can be large or run the other way.
Property label: activity change, negative = inhibition

Example molecules with recorded activity change, negative = inhibition:
Nc1ccc(/C=C/c2ccc(N)cc2S(=O)(=O)O)c(S(=O)(=O)O)c1 6.51% [at 0.349 µM] (inactive)
CC(C)C(=O)c1ccccc1 inactive
O=C(Nc1cccc(C2=NCCN2)c1)Nc1cccc(C2=NCCN2)c1 -4.15% [at 19 µM] (inactive)
O=C(O)c1ccc(OCCN2CCCCC2)cc1 inactive

Consider the record given below.
Recorded activity change, negative = inhibition (molecule `COc1ccc(NS(=O)(=O)c2ccc(N)cc2)nn1` ): inactive

###

biological target: Cytochrome P450 3A4 (Homo sapiens); assay: Cytochrome P450 Family 3 Subfamily A Member 4 (CYP3A4) small molecule antagonists: luciferase reporter qHTS assay (AID 1671201); details: P450-Glo CYP3A4 enzyme, luciferin luminescence, 1 h; series mostly up to 115 µM; further: on the % scale 0 is the no-effect control and ±100 the full control effect; nearly all actives have a fitted effect of over 50% in size
Results filed as inconclusive are left out. Calls of active or inactive are those of the source. Calls come from the whole dose curve; as a rule, active = well fitted inhibition curve with a large enough effect in the repeat runs; inconclusive = weak or mixed curves; inactive = no such curve, though single readings can be large or run the other way.
Property label: activity change, negative = inhibition

Compound	Experimental result
C=CCCCCCCCCCCC	4% [at 10.5 µM] (inactive)
Nc1cc(Cl)cc(S(=O)(=O)O)c1O	inactive
CN(C)CCCNCCC#N	inactive
CCCCCCCCCCCCC1CO1 (stereo unspecified)	inactive
O=C(O)Cc1cccc(-c2cc(CCCCCCc3ccc(O[C@H]4O[C@H](CO)[C@@H](O)[C@H](O)[C@@H]4O)c(-c4cccc(CC(=O)O)c4)c3)ccc2O[C@H]2O[C@H](CO)[C@@H](O)[C@H](O)[C@@H]2O)c1	0.205% [at 0.435 µM] (inactive)

Consider the record given below.
Recorded activity change, negative = inhibition (compound Cc1ccccc1OCC1CO1 (stereo unspecified) ): inactive

###

Recorded max activation, one value per entry.
biological target: Nuclear receptor subfamily 1 group I member 2 (Rattus norvegicus) (UniProt Q9R1A7); assay: Rat pregnane X receptor (rPXR) activation by small molecules, qHTS assay (AID 1346983); conditions: rPXR luciferase reporter cells, One-Glo luminescence, 24 h; active compounds read high; further: on the % scale 0 is the no-effect control and ±100 the full control effect; nearly all actives have a fitted effect of over 20% in size
Sequence (Q9R1A7 whole entry, looked up): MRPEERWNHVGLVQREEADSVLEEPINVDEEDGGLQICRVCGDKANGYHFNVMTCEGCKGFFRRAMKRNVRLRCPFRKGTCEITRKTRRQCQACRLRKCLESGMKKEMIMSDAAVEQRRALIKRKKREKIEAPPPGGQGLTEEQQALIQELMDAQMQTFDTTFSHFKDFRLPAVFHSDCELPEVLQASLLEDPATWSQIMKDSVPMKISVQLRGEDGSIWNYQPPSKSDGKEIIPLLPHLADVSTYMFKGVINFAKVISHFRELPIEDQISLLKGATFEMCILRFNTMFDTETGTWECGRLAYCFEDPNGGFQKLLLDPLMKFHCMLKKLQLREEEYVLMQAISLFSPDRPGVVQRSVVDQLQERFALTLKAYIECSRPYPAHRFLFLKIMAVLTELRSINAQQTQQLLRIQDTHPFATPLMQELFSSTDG
Inconclusive results are not listed.
Numeric answer only, unit % assumed.

Example molecules with recorded max activation:
Molecule	Property label	Quantity unit	Experimental result
O=C(O)/C=C/c1ccccc1	max activation	%	-6.4
Cc1ccc(S(=O)(=O)NC(=O)NC2CCCCCCC2)cc1	max activation	%	-1.92
O=c1cc(O)c(Cl)c[nH]1	max activation	%	-3.03

Consider the record given below.
Recorded max activation (molecule CC(=O)N(CC(O)CO)c1c(I)c(C(=O)NCC(O)CO)c(I)c(C(=O)NCC(O)CO)c1I (centres undefined) ): -0.214

###

biological target: Cytochrome P450 2C9 (Homo sapiens) (UniProt P11712); assay: Cytochrome P450 Family 2 Subfamily C Member 9 (CYP2C9) small molecule antagonists: luciferase reporter qHTS assay (AID 1671198); details: P450-Glo CYP2C9 enzyme assay, luciferin luminescence; series mostly up to 115 µM; further: nearly all actives have a fitted effect of over 50% in size
Sequence (P11712 whole entry, looked up): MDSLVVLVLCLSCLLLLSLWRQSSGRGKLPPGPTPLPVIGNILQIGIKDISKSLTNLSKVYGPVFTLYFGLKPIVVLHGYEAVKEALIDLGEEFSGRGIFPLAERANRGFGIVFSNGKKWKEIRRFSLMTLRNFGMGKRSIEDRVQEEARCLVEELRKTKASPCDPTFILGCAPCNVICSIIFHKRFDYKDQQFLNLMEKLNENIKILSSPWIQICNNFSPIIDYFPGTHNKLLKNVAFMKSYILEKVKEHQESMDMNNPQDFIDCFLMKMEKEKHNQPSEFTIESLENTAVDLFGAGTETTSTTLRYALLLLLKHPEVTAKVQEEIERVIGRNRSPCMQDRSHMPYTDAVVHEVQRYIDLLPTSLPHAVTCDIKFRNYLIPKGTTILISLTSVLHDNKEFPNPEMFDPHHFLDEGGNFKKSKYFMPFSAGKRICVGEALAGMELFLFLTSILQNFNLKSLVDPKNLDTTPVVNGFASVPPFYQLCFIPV
Inconclusive results are not listed. Activity calls are given as the source filed them. The call rests on the fitted dose curve; in most records, active means well fitted inhibition curve with a large enough effect in the repeat runs; inconclusive means weak or mixed curves; inactive means no such curve, though single readings can be large or run the other way.
Outcome field: choose from t (active), f (inactive)

Molecule	Class assignment
O=C1c2ccccc2-c2ccccc21	t
Nc1ccc(S(=O)(=O)Nc2ccccn2)cc1	f
CCC(=O)c1ccc(O)cc1	f
NS(=O)(=O)c1ccc(Cl)c(S(N)(=O)=O)c1	f
CCCCCCCCCCCCCC(=O)OC	f
O=c1cc(O)c(Cl)c[nH]1	f

INPUT: Hi team, can someone confirm the assay call for `CCCOC(=O)CCCCC(=O)OCCC` ?
OUTPUT: t

INPUT: Hi team, can someone confirm the assay call for `CN(C1CCCCC1)S(=O)(=O)c1ccccc1N` ?
OUTPUT: t

INPUT: Hi team, can someone confirm the assay call for NC(Cc1c[nH]c2ccccc12)C(=O)O (stereo not drawn) ?
OUTPUT: t

INPUT: Hi team, can someone confirm the assay call for `OC[C@@H](O)[C@H](O)[C@@H](O)[C@@H](O)CO` ?
OUTPUT: f

INPUT: Hi team, can someone confirm the assay call for `CC(=O)OCCCc1ccccc1` ?
OUTPUT: f

INPUT: Hi team, can someone confirm the assay call for `NC(=O)NC(=O)Cc1ccccc1` ?
OUTPUT: f

INPUT: Hi team, can someone confirm the assay call for `COc1ccc(N=Nc2cc(C)c(N=Nc3ccc(S(=O)(=O)O)cc3)cc2OC)cc1` ?
OUTPUT: t

INPUT: Hi team, can someone confirm the assay call for `Cc1ccccc1C(=O)N1CC/C(=N\OS(=O)(=O)O)c2ccc(Cl)cc21` ?
OUTPUT: t

INPUT: Hi team, can someone confirm the assay call for `CCCCOC(=O)[C@@H](C)Oc1ccc(Oc2ccc(C(F)(F)F)cn2)cc1` ?
OUTPUT: t

INPUT: Hi team, can someone confirm the assay call for `O=C1OC(=O)c2cc(Oc3ccc4c(c3)C(=O)OC4=O)ccc21` ?
OUTPUT: f

INPUT: Hi team, can someone confirm the assay call for `Cc1ccccc1C` ?
OUTPUT: f

INPUT: Hi team, can someone confirm the assay call for `CN(C)CCCNCCC#N` ?
OUTPUT: f
